tested on: E. coli TESEC Mtb Alr; test: growth (OD600 after 10 h); higher = more growth (less inhibition); conditions: arabinose 1000 nM; compound 0.1 mM; raw OD600 reference: median of DMSO wells 0.294, cell-free background 0.041
Structures can show the parent of a compound that is named as a salt.
Measured growth values are reported for all entries that follow.
Give the value as a plain number.

Here's what some known entries look like.
CCOc1ccc(NC(C)=O)cc1 | 0.291
CN(C)CCCC1(c2ccc(F)cc2)OCc2cc(C#N)ccc21 (centres undefined) [Citalopram Hydrobromide] | 0.272
CNCC[C@@H](Oc1cccc2ccccc12)c1cccs1 [(R)-Duloxetine hydrochloride] | 0.0692
O=C(C1CCCCC1)N1CC(=O)N2CCc3ccccc3C2C1 (centres undefined) | 0.251
Cc1ccccc1C(OCCN(C)C)c1ccccc1 (centres undefined) [Orphenadrine hydrochloride] | 0.26
CNCCC=C1c2ccccc2CCc2ccccc21 [Nortriptyline hydrochloride] | 0.181
Fc1ccc([C@@H]2CCNC[C@H]2COc2ccc3c(c2)OCO3)cc1 [Paroxetine Hydrochloride] | 0.172
CC(C)NCC(O)COc1ccc(COCCOC(C)C)cc1 (centres undefined) [Bisoprolol fumarate] | 0.302

The compound listed as O=C(CCCCC(=O)Nc1c(I)cc(I)c(C(=O)O)c1I)Nc1c(I)cc(I)c(C(=O)O)c1I [Iodipamide] has a reported growth of 0.298

The compound listed as CCCCOC(=O)c1ccc(N)cc1 has a reported growth of 0.23

The compound listed as CO[C@H]1/C=C/O[C@@]2(C)Oc3c(C)c(O)c4c(O)c(c5c(nc6cc(C)ccn65)c4c3C2=O)NC(=O)/C(C)=C\C=C\[C@H](C)[C@H](O)[C@@H](C)[C@@H](O)[C@@H](C)[C@H](OC(C)=O)[C@@H]1C has a reported growth of 0.0438

The compound listed as CC(C(=O)O)c1ccc(N2Cc3ccccc3C2=O)cc1 (centres undefined) has a reported growth of 0.264

The compound listed as COc1ccc(C(Cl)=C(c2ccc(OC)cc2)c2ccc(OC)cc2)cc1 has a reported growth of 0.306

====

system: E. coli TESEC Alr+ wild-type control; test: growth (OD600 after 10 h); higher = more growth (less inhibition); conditions: compound 0.1 mM; raw OD600 reference: median of DMSO wells 0.49, cell-free background 0.052
Counter-ions that a name gives are not always drawn.
measurement.name: growth
Give the value as a plain number.

Here's what some known entries look like.
O=C1CCc2cc(OCCCCc3nnnn3C3CCCCC3)ccc2N1 [Cilostazol] | 0.461
CCC[C@@H]1C[C@@H](C(=O)N[C@@H]([C@H]2O[C@H](SC)[C@H](O)[C@@H](O)[C@H]2O)[C@@H](C)O)N(C)C1 [Lincomycin hydrochloride] | 0.486
CCCCC[C@H](O)/C=C/[C@H]1[C@H](O)CC(=O)[C@@H]1CCCCCCC(=O)O [Alprostadil] | 0.503
COc1ccnc(C[S+]([O-])c2nc3cc(OC(F)F)ccc3[nH]2)c1OC (stereo not given) [Pantoprazole sodium] | 0.451
NC12CC3CC(CC(C3)C1)C2 [Adamantamine fumarate] | 0.469

The compound listed as CC(C)Cn1cnc2c(N)nc3ccccc3c21 [Imiquimod] has a reported growth of 0.574

====

tested on: E. coli TESEC Mtb Alr; test: growth (OD600 after 10 h); higher = more growth (less inhibition); conditions: arabinose 10000000 nM; compound 0.1 mM; raw OD600 reference: median of DMSO wells […], cell-free background 0.052
Counter-ions that a name gives are not always drawn.
measurement.name: growth
Give the value as a plain number.

O=P(O)(O)C(Cl)(Cl)P(=O)(O)O [Clodronate] | 0.303
Cc1c(N(C)C)c(=O)n(-c2ccccc2)n1C [Amidopyrine] | 0.365
CC(NCCc1ccc(O)cc1)C(O)c1ccc(O)cc1 (stereo not drawn) [Ritodrine hydrochloride] | 0.36

Simply: CCCCCN(CCCCC)C(=O)C(CCC(=O)O)NC(=O)c1ccc(Cl)c(Cl)c1 (stereo not drawn) [Lorglumide sodium salt] , E. coli TESEC Mtb Alr, growth = 0.161

Simply: Nc1ccc(/N=N/c2ccccc2)c(N)n1 [Phenazopyridine hydrochloride] , E. coli TESEC Mtb Alr, growth = 0.301

Simply: C[C@]12C=CC(=O)C=C1CC[C@@H]1[C@@H]2[C@@H](O)C[C@@]2(C)[C@H]1CC[C@]2(O)C(=O)CO [Prednisolone] , E. coli TESEC Mtb Alr, growth = 0.306

Simply: CC(C)(Sc1cc(C(C)(C)C)c(O)c(C(C)(C)C)c1)Sc1cc(C(C)(C)C)c(O)c(C(C)(C)C)c1 [Probucol] , E. coli TESEC Mtb Alr, growth = 0.366

Simply: CCN(CC)CCOC(=O)C(Cc1cccc2ccccc12)CC1CCCO1 (stereo not drawn) [Nafronyl oxalate] , E. coli TESEC Mtb Alr, growth = 0.293
